- Test system: MS2 coat protein
- Assay name: apparent KD of MS2 coat protein; designed switch direction (-1 OFF switch, 1 ON switch): -1; higher = weaker reporter binding
- Measurement setup: input ligand: FMN 200 uM
As shown below, each of these sequences has a reported apparent KD of MS2 coat protein value.
Provide only the numeric value, understood in nM.

[
  {
    "Seq": "AUUAUAAAUGUAGGAUAUCUGCACGUUUAGUGCAGAGAAGGACAUGAGGAUCACCCAUGUAGAUCAAUAAUAAUUAAUUUAAUU [ENG1/5-B2] (Eterna round: R96, puzzle: Exclusion NG 1)",
    "Observation type": "apparent KD of MS2 coat protein",
    "Display unit": "nM",
    "Quantitative readout": 146
  }
]

Here's the next entry for you.
Exercise: Given the entry CCCAGUUAUCAAGGAUAUUGUACAUGAGGAUCACCCAUGUAAUAAAUGAGGAUUUCGGGUGUCUACAAGAAGGUGAGGAUAGGC [Ostracism 15 - Jieux - Exclusion NG 2] (Eterna round: R96, puzzle: Exclusion NG 2) , what apparent KD of MS2 coat protein was observed with MS2 coat protein?
Solution: 26.6
